Values were extracted from paper PMC9482650.

# assay-system: MAGI1_2, Q96QZ7
# Sequence (Q96QZ7 456-580): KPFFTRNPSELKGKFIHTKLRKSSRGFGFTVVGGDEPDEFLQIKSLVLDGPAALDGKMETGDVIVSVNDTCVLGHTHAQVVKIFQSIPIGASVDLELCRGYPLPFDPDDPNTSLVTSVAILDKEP
# protocol-details: holdup assay
# Set-up: key: below the threshold = too weak to quantify, mostly under pKd 3.1 to 4
# cond: plain residues with an end cap or a label only (N-terminal biotin on a linker: ado-ado)

binder: DFKHTKSFII [JAM2, P57087]
pKd: below the threshold

binder: VKQYADVEGF [HNRNPK, P61978;P61978-2]
pKd: below the threshold

binder: RSPVATATSC [DUSP5, Q16690]
pKd: below the threshold
